Recorded values, source patent US20260109761A1.

- target-under-test: T1, huZIP12-ECD-GST (human, UniProt Q504Y0 24-202)
- T1 construct: also called hZIP12-ECD-GST; human ZIP12-ECD-GST; not shown: glutathione S-transferase (GST) tag
- T1 sequence (Q504Y0 24-202): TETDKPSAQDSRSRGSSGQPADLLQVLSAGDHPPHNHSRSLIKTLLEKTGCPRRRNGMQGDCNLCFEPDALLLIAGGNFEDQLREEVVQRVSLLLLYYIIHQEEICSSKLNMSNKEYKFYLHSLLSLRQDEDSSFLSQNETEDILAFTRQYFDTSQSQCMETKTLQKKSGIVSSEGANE
- protocol-notes: SPR single cycle kinetics (Biacore): mAb captured on protein A, huZIP12-ECD-GST injected at 2.34-600 nM, extended dissociation
This listing pairs binders with measured pKd.
Please note pKd is a logarithmic value: minus log10 of concentration in mol/L. Answer with that number alone.

Reference set (3 entries):
1) H2_Y60K_VL-par (antibody, V domains shown, Fc null human IgG1 / human kappa) VH: QVQLVESGGGVVQPGRSLRLSCAASGFTFSDYGMHWVRQAPGKGLEWVAYISSGGTTIYKADTVKGRFTISRDNSKNTLYLQMNSLRAEDTAVYYCARWTNLYAMDYWGQGTTVTVSS VL: DIVLTQSPDSLAVSLGERATINCRASKSVSTSGYSYMHWYQQKPGQPPKFLIYLASNLESGVPDRFSGSGSGTDFTLTISSLQAEDVAVYYCQHSREVPYTFGGGTKVEIKR    9.08
2) H2_Y60K_L1 (antibody, V domains shown, Fc null human IgG1 / human kappa) VH: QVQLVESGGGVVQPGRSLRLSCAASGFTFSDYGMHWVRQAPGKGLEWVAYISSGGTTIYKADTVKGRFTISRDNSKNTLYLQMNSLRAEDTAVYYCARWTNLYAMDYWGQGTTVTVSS VL: DIVLTQSPDSLAVSLGERATINCRASKSVSTQGYSYMHWYQQKPGQPPKFLIYLASNLESGVPDRFSGSGSGTDFTLTISSLQAEDVAVYYCQHSREVPYTFGGGTKVEIKR    9.22
3) H2_T63Y_L1 (antibody, V domains shown, Fc null human IgG1 / human kappa) VH: QVQLVESGGGVVQPGRSLRLSCAASGFTFSDYGMHWVRQAPGKGLEWVAYISSGGTTIYYADYVKGRFTISRDNSKNTLYLQMNSLRAEDTAVYYCARWTNLYAMDYWGQGTTVTVSS VL: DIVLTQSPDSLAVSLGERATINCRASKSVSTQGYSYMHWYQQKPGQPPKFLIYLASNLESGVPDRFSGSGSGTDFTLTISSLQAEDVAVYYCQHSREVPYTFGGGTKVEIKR    8.87

INPUT: Fill blank: measured pKd of the binder H2_T56H_VL-par (antibody, V domains shown, Fc null human IgG1 / human kappa) VH: QVQLVESGGGVVQPGRSLRLSCAASGFTFSDYGMHWVRQAPGKGLEWVAYISSGGHTIYYADTVKGRFTISRDNSKNTLYLQMNSLRAEDTAVYYCARWTNLYAMDYWGQGTTVTVSS VL: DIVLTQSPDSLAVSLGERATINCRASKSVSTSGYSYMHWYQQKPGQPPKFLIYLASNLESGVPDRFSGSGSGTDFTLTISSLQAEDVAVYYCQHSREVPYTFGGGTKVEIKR is ____.
OUTPUT: 9.23

INPUT: Query H3_W99H_L1 (antibody, V domains shown, Fc null human IgG1 / human kappa) VH: QVQLVESGGGVVQPGRSLRLSCAASGFTFSDYGMHWVRQAPGKGLEWVAYISSGGTTIYYADTVKGRFTISRDNSKNTLYLQMNSLRAEDTAVYYCARHTNLYAMDYWGQGTTVTVSS VL: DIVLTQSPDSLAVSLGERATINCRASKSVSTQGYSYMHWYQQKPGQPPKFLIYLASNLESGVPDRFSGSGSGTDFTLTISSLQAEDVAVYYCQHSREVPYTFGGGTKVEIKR next
OUTPUT: 9.50
